Give measured Ca2+-ATPase C10 for each item. Keep answers brief.
molecular target: SERCA2a (Sus scrofa, UniProt P11607); construct: Cardiac SR vesicles were isolated from fresh porcine left ventricular tissue using differential centrifugation; from tissue; host or cells: porcine left ventricular tissue (cardiac SR vesicles); test: NADH-linked Ca2+-ATPase activity assay in pig cardiac SR (pCSR) vesicles; format: biochemical; settings: [Ca2+]MID (pCa6.2), concentration yielding 10% effect
Sequence (P11607 1-997 isoform P11607-2): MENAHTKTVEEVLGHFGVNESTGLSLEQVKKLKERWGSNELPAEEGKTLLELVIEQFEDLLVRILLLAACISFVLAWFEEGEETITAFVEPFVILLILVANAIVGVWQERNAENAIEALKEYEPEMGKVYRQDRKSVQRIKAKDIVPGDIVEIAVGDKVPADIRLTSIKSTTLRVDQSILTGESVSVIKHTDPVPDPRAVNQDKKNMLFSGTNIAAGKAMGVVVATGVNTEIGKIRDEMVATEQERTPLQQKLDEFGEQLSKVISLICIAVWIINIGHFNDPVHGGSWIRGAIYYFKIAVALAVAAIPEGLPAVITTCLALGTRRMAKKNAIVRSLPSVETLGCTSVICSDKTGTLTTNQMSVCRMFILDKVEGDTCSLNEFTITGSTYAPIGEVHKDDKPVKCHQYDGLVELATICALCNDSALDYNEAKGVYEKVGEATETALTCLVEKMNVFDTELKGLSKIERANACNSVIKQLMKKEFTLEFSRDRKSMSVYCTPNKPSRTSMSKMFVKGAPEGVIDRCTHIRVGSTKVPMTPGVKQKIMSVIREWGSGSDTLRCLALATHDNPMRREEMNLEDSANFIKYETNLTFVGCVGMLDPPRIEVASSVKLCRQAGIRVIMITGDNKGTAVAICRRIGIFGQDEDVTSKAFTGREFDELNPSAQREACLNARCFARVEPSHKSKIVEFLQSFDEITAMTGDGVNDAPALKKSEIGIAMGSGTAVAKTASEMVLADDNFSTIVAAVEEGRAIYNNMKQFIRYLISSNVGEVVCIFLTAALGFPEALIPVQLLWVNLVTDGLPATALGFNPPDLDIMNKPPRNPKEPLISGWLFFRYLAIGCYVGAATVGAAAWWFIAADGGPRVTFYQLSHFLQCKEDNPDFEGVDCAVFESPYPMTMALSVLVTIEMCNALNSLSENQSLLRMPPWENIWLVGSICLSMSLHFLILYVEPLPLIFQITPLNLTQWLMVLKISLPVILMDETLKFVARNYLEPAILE
Please state the figure in µM; there is no need to write the unit.

Prompt line: Item COc1ccc(Cn2cc(C(=O)N(C)Cc3ccnc4ccccc34)nn2)cc1 : provide Ca2+-ATPase C10
Response line: 3.2

Prompt line: Item O=C(c1ccc(-c2ccc(O)cc2)nc1)N1CCC(CCc2ccccc2)CC1 : provide Ca2+-ATPase C10
Response line: 8.7

Prompt line: Item COC(=O)CSc1ncc(-c2ccc(F)cc2)c(C2CCCN(C(=O)c3cccc(F)c3)C2)n1 (centres unmarked) : provide Ca2+-ATPase C10
Response line: 1.2

Prompt line: Item O=C(c1cc(COc2ccc3c(c2)CCCC3)on1)N1CCC(c2ccncc2)CC1 : provide Ca2+-ATPase C10
Response line: 14.8

Prompt line: Item O=S(=O)(NCc1ccccc1)N1CCc2ccc(C(F)(F)F)cc2C1 : provide Ca2+-ATPase C10
Response line: 5

Prompt line: Item OCC1(Cc2ccccc2F)CCCN(Cc2cc3c(cc2Cl)OCO3)C1 (centres unmarked) : provide Ca2+-ATPase C10
Response line: 1.0

Prompt line: Item c1ccc(-c2cc(CN3CCN(c4ncnc5ccccc45)CC3)on2)cc1 : provide Ca2+-ATPase C10
Response line: 39.2

Prompt line: Item CCc1cnc(N2CC[C@@H](c3ccc4ccccc4c3)[C@H](O)C2)nc1 (relative stereo) : provide Ca2+-ATPase C10
Response line: 4.7

Prompt line: Item COc1ccc(Cc2noc(CN3CCN(c4nc5ccccc5s4)CC3)n2)cc1OC : provide Ca2+-ATPase C10
Response line: 19.6

Prompt line: Item COc1ccc(C(=O)C2CCCN(Cc3nc(-c4ccc(F)cc4)cs3)C2)c(OC)c1 (centres unmarked) : provide Ca2+-ATPase C10
Response line: 7.8

Prompt line: Item OCC1(CCOc2ccccc2)CCCN(Cc2cc3c(cc2Cl)OCO3)C1 (centres unmarked) : provide Ca2+-ATPase C10
Response line: 1.6

Prompt line: Item CCc1ccc(S(=O)(=O)N2CCCC(C(=O)c3sccc3C)C2)cc1 (centres unmarked) : provide Ca2+-ATPase C10
Response line: 3.2

Prompt line: Item CCC(C)(C)c1nnc(NC(=O)NCc2ccc(F)cc2F)s1 : provide Ca2+-ATPase C10
Response line: 0.4

Prompt line: Item Cc1nc(N2CCCCCCC2)ncc1C(C)NC(=O)c1ccnn1C (centres unmarked) : provide Ca2+-ATPase C10
Response line: 1
